System: morningglory
ASSAY_TEXT: Test B pre-/postemergence herbicide test
Type: in vivo, Ipomoea coccinea
EXPERIMENTAL_CONDITIONS: postemergence, 125 g ai/ha; visual rating, scale 0 (no effect) to 100 (complete control)
Each item that follows carries a reported Morningglory plant response rating.
Note: the reply should be a number with no unit written.

CCn1nc(C(C)(C)C)cc1C(=O)Nc1cccc(C(=O)NC2CC2)n1; 0
CCn1nc(C(C)(C)C)cc1C(=O)Nc1cccc(C(C)=NO)c1; 30
CCn1nc(C(C)(C)C)cc1C(=O)Nc1cccc(C(=O)OC)c1; 0
C=CCNC(=O)c1cccc(NC(=O)c2sc(C(C)(C)C)nc2C)c1; 20

Ask | Please give the documented Morningglory plant response rating of CCCOC(=O)c1cc(NC(=O)c2cc(C(C)(C)C)nn2CC)c(F)cc1F
Reply | 20

---

Tested on: ducksalad
ASSAY_TEXT: Test C flooded paddy test
Format: in vivo, Heteranthera limosa
EXPERIMENTAL_CONDITIONS: 62 g ai/ha, scale 0 to 100
Each item that follows carries a reported Ducksalad plant response rating.
Note: the reply should be a number with no unit written.

Reference set (5 entries):
CCn1nc(C(C)(C)C)cc1C(=O)Nc1cccc(C(=O)N2CC=CC2)c1; 50
C#CCOc1cccc(NC(=O)c2cc(C(C)(C)C)nn2CC)c1; 25
CCn1nc(C(C)(C)C)cc1C(=O)Nc1cccc(OC(F)(F)F)c1; 10
CCOC(=O)c1ccc(F)c(NC(=O)c2cc(C3(C)CC3)nn2CC)c1; 0
CCC1=NN(C(C)(C)C)CC1C(=O)Nc1cc(C(=O)N2CC=CC2)ccc1F (racemic); 50

Attention now shifts to the item below.
Ask | Please give the documented Ducksalad plant response rating of C#CCNC(=O)c1ccc(F)c(NC(=O)c2cc(C3(C)CC3)nn2CC)c1
Reply | 0

---

Each item that follows carries a reported Plant response rating (0 to 100 scale), Morningglory.
Tested on: morningglory
ASSAY_TEXT: Test B pre-/postemergence herbicide test
Assay type: in vivo, Ipomoea coccinea
EXPERIMENTAL_CONDITIONS: 125 g ai/ha; 0 is no effect, 100 is complete control; preemergence
Note: the reply should be a number with no unit written.

Reference set (4 entries):
CCNC(=S)c1ccc(F)c(NC(=O)c2cc(C(C)(C)C)nn2CC)c1; 0
CCc1nn(C(C)(C)C)nc1C(=O)Nc1cccc(C(=O)N2CCCCC2)c1; 0
Cc1nn(C(C)(C)C)nc1C(=O)Nc1cncc(C(=O)N(C)C)c1; 0
C=CCN(CC=C)C(=O)c1cccc(NC(=O)c2nn(C(C)C)nc2CC)c1; 0

Ask | Param request: Plant response rating (0 to 100 scale), Morningglory | system morningglory | item CCc1nn(C(C)(C)C)nc1C(=O)Nc1cc(C(=O)N2CCCCC2)ccc1F
Reply | 0

Ask | Param request: Plant response rating (0 to 100 scale), Morningglory | system morningglory | item CCc1nn(C(C)(C)CC)nc1C(=O)Nc1cccc(C(=O)N(C)C)c1
Reply | 10

Ask | Param request: Plant response rating (0 to 100 scale), Morningglory | system morningglory | item C=CCN(CC=C)C(=O)c1ccc(F)c(NC(=O)c2nn(C(C)(C)C)nc2CC)c1
Reply | 0

Ask | Param request: Plant response rating (0 to 100 scale), Morningglory | system morningglory | item CCc1nn(C(C)C)nc1C(=O)Nc1cccc(C(=O)N(C)C)c1
Reply | 50

---

Tested on: velvetleaf
ASSAY_TEXT: Test B pre-/postemergence herbicide test
Assay type: in vivo, Abutilon theophrasti
EXPERIMENTAL_CONDITIONS: postemergence, 500 g ai/ha; visual rating, scale 0 (no effect) to 100 (complete control)
REPORTED_METRIC: Velvetleaf plant response rating
Note: the reply should be a number with no unit written.

Reference set (2 entries):
CCc1nc(C(C)(C)C)sc1C(=O)Nc1cc(C(=O)N(C)CC)ccc1F; 50
CCCc1nn(C(C)(C)C)cc1C(=O)Nc1cccc(C(=O)N(CC)CC)c1; 50

Ask | Param request: Velvetleaf plant response rating | system velvetleaf | item CCc1cn(C(C)(C)C)nc1C(=O)Nc1cc(C(=O)N(C)C)ccn1
Reply | 40

Ask | Param request: Velvetleaf plant response rating | system velvetleaf | item CCn1nc(C(C)(C)C)cc1C(=O)Nc1cccc(C#N)c1
Reply | 60

---

Tested on: lambsquarters
ASSAY_TEXT: Test B pre-/postemergence herbicide test
Type: in vivo, Chenopodium album
EXPERIMENTAL_CONDITIONS: postemergence, 500 g ai/ha; visual rating, scale 0 (no effect) to 100 (complete control)
# strict inequality: Lambsquarters plant response rating < 60 yields 1, everything else yields -1

C=CCN(C)C(=O)c1ccnc(NC(=O)c2cc(C(C)(C)C)nn2CC)c1; -1
CCc1nn(C(C)(C)C)cc1C(=O)Nc1ccc(F)c(C(=O)N(C)C)c1; 1
CC(=O)c1cc(NC(=O)c2cc(C(C)(C)C)nn2C)ccc1F; 1
CCn1nc(C(C)(C)C)cc1C(=O)Nc1nccc(OC)n1; 1
C=CCn1nc(C(C)(C)C)cc1C(=O)Nc1cccc(C(C)=O)c1; 1
C=CCN(C)C(=O)c1cccc(NC(=O)c2cc(C(C)(C)C)nn2CC)n1; -1
C#CCNC(=O)c1cccc(NC(=O)c2sc(C(C)(C)C)nc2C)c1; 1
CCN(C)C(=O)c1cccc(NC(=O)c2sc(C(C)(C)C)nc2C)c1; -1

Ask | Is 60 strictly greater than the molecule's reported Lambsquarters plant response rating? molecule: C=CCNC(=O)c1cccc(NC(=O)c2sc(C(C)(C)C)nc2C)c1
Reply | 1

Ask | Is 60 strictly greater than the molecule's reported Lambsquarters plant response rating? molecule: CC(=O)c1cccc(NC(=O)c2cn(C(C)C)nc2C)c1
Reply | 1

Ask | Is 60 strictly greater than the molecule's reported Lambsquarters plant response rating? molecule: CCn1nc(C(C)(C)C)cc1C(=O)Nc1cccc(C(=O)NC2CC2)n1
Reply | -1

---

Tested on: barnyardgrass
ASSAY_TEXT: Test B pre-/postemergence herbicide test
Format: in vivo, Echinochloa crus-galli
EXPERIMENTAL_CONDITIONS: 500 g ai/ha; visual rating 0-100, 0 no effect, 100 complete control; preemergence
# strict inequality: Plant response rating, Barnyardgrass < 70 yields Yes, everything else yields No

CCn1nc(C(C)(C)C)cc1C(=O)Nc1cc(C#N)ccc1F; No
COc1ccc(C(C)=NO)cc1NC(=O)c1cc(C(C)(C)C)nn1C; No
CCN(CC)C(=O)c1cccc(NC(=O)c2cc(C(C)(C)C)nn2CC)n1; No
CCn1nc(C(C)(C)C)cc1C(=O)Nc1cccc(C(=O)OC(C)C)c1C; Yes
CCn1nc(C(C)(C)C)cc1C(=O)Nc1ccc(C)c(C(=O)OC(C)C)c1; Yes
C=CCOC(=O)c1cccc(NC(=O)c2cc(C(C)(C)C)nn2CC)c1C; Yes

Ask | Is 70 strictly greater than the compound's reported Plant response rating, Barnyardgrass? compound: C=CCn1nc(C(C)(C)C)cc1C(=O)Nc1cccc(C(C)=O)c1
Reply | Yes

Ask | Is 70 strictly greater than the compound's reported Plant response rating, Barnyardgrass? compound: CC(=O)c1cccc(NC(=O)c2cn(C(C)C)nc2C)c1
Reply | Yes

---

Test system: smallflower umbrella sedge
ASSAY_TEXT: Test C flooded paddy test
Type: in vivo, Cyperus difformis
EXPERIMENTAL_CONDITIONS: 500 g ai/ha, visual rating after 12 to 14 days, scale 0 to 100 (0 no effect, 100 complete control)
# strict inequality: Plant response rating, Sedge, Umbrella < 80 yields T, everything else yields F

# example entries with known answers
CC(=NO)c1cccc(NC(=O)c2cc(C(C)(C)C)nn2CC(F)(F)F)c1; T
CCc1nc(C(C)(C)C)sc1C(=O)Nc1cccc(C(=O)NCC2CC2)n1; F
CCn1nc(C(C)(C)C)cc1C(=O)Nc1cccc(C(=O)NOC)c1; T
C#CCNC(=O)c1ccc(F)c(NC(=O)c2cc(C3(C)CC3)nn2CC)c1; F
CCN1N=C(C(C)(C)C)CC1C(=O)Nc1cc(C(=O)N2CCCCC2)ccc1F (racemic); T

Ask | Is 80 strictly greater than the molecule's reported Plant response rating, Sedge, Umbrella? molecule: CCn1nc(C(C)(C)C)cc1C(=O)Nc1cncc(C(=O)N(C)C)n1
Reply | T

Ask | Is 80 strictly greater than the molecule's reported Plant response rating, Sedge, Umbrella? molecule: CCn1nc(C(C)(C)C)cc1C(=O)Nc1cccc(C(=O)NC2CC2)n1
Reply | F

Ask | Is 80 strictly greater than the molecule's reported Plant response rating, Sedge, Umbrella? molecule: CCc1nn(C(C)(C)C)cc1C(=O)Nc1cccc(C(C)=NO)c1
Reply | F

Ask | Is 80 strictly greater than the molecule's reported Plant response rating, Sedge, Umbrella? molecule: CCNC(=O)c1ccnc(NC(=O)c2cc(C(C)(C)C)nn2CC)c1
Reply | F

Ask | Is 80 strictly greater than the molecule's reported Plant response rating, Sedge, Umbrella? molecule: C#CCN(C)C(=O)c1ccnc(NC(=O)c2cc(C(C)(C)C)nn2CC)c1
Reply | F

Ask | Is 80 strictly greater than the molecule's reported Plant response rating, Sedge, Umbrella? molecule: CCn1nc(C(C)(C)C)cc1C(=O)Nc1cc(C#N)ccc1F
Reply | T
